# credit: ChEMBL document CHEMBL1128064

- SYSTEM TESTED: Cysteinyl leukotriene receptor 1 (Cavia porcellus)
- RUN DESCRIPTION: Inhibition of binding of [3H]LTD4 to guinea pig lung membrane supplemented with 0.05% human serum albumin(HSA)
QUANTITY KIND: IC50 (pM)
// return numeric value only (unit: pM, not printed)

The reported value for CC(C)(O)c1ccccc1CC[C@@H](SCC1(CC(=O)O)CC1)c1cccc(/C=C/c2ccc3scc(Cl)c3n2)c1 in terms of IC50 is 1580

###

- SYSTEM TESTED: Cysteinyl leukotriene receptor 1 (Cavia porcellus)
- RUN DESCRIPTION: Inhibition of binding of [3H]LTD4 to guinea pig lung membrane supplemented with 0.05% human serum albumin(HSA)
Entries and their IC50
// return numeric value only (unit: nM, not printed)

Below, 2 compounds whose answers are already recorded.
O=C(O)CC1(CS[C@H](CCc2cccc(C3(O)CCC3)c2)c2cccc(/C=C/c3ccc4sc(Cl)c(Cl)c4n3)c2)CC1
0.24
O=C(O)CC1(CS[C@H](CCc2ccccc2C(O)(C(F)(F)F)C(F)(F)F)c2cccc(/C=C/c3ccc4sc(Cl)c(Cl)c4n3)c2)CC1
1.21

The reported value for CC(C)(O)c1ccccc1CC[C@@H](SCC1(CC(=O)O)CC1)c1cccc(/C=C/c2ccc3sc(Cl)c(Cl)c3n2)c1 in terms of IC50 is 0.34
